Across several publications, the following IC50 results were reported for BDNF/NT-3 growth factors receptor (Homo sapiens).
One number for each entry, in nM.

- Fc1cccc(F)c1Cc1ccc2[nH]nc(C#Cc3ccccn3)c2c1: 385
- COc1cc2ncnc(C3CCN(C(=O)Nc4ccc(I)cc4)CC3)c2cc1OC: 6200
- CC(Nc1ccn2ncc(-c3cnn(C(F)F)c3)c2n1)c1cc(F)ccc1OCC(F)F (centres unmarked): 4.8
- COc1cc2ncnc(N3CCC(C(=O)Nc4ccc(C(C)C)cc4)CC3)c2cc1OC: 160

Now let's try a different one.
According to the records, this compound C[C@@H](Nc1ccn2ncc(-c3cnn(C)c3)c2n1)c1cc(F)ccc1OCC(F)F displays IC50 of 2.8

###

Below are pIC50 values for BDNF/NT-3 growth factors receptor (Homo sapiens, UniProt Q16620) collected from several publications.
Answers are plain numbers, as −log10 of the molar value.

Below: 10 compounds and their reported pIC50.
- CC(C)Oc1ccc(NC(=O)N2CCC(c3ncnc4cc(NCCCN5CCN(C)CC5)ccc34)CC2)cc1: 6.70
- Fc1cc(F)cc(Cc2ccc3[nH]nc(/C=C/c4ccccc4)c3c2)c1: 7.39
- CC(C)Oc1ccc(NC(=O)OC2CCN(c3ccnc4ccccc34)CC2)cc1: 4.85
- COc1cc2ncnc(C3CCN(C(=O)Nc4ccc5ncsc5c4)CC3)c2cc1OC: 4.46
- COc1cc2ncnc(C3CCN(C(=O)Nc4ccc(OC5CCC5)nc4)CC3)c2cc1OC: 6.30
- Fc1cc(F)cc(Sc2ccc3[nH]nc(/C=C/c4ccccn4)c3c2)c1: 7.10
- COc1cc2ncc(C#N)c(N3CCC(NC(=O)Nc4ccc(OC(C)C)cc4)C3)c2cc1OC (stereo not shown): 4.99
- CN(C)C(=O)N1CCN(CCCOc2ccc3c(C4CCN(C(=O)Nc5ccc(N6CCOCC6)cc5)CC4)ncnc3c2)CC1: 4.78
- CC(C)Oc1ccc(NC(=O)N2CCC(c3ncnc4ccc(OCCCN5CCN(C)CC5)cc34)CC2)cc1: 5.10
- CNC(=O)c1ccc(-c2cc(OC3CCOCC3)c3c(N)n[nH]c3c2)cc1N1CCN(CC(F)(F)F)CC1: 7.38

// each compound listed below needs its pIC50
1. CN(Cc1cc(F)cc(F)c1)c1ccc2[nH]nc(/C=C/c3ccccn3)c2c1
2. CC(C)Oc1ccc(NC(=O)N2CCC(c3ncnc4cc(OCCN5CCCCC5)ccc34)CC2)cc1
3. CS(=O)(=O)NCCCOc1ccc2c(C3CCN(C(=O)Nc4ccc(OC5CCCC5)nc4)CC3)ncnc2c1

output:
1. 7.69
2. 5.55
3. 6.40

Lab note: CC(C)Oc1ccc(NC(=O)N2CCC(c3ncnc4cc(OCCN5CCOCC5)ccc34)CC2)cc1 gave pIC50 of 6.15

###

Record set: log10 IC50 | BDNF/NT-3 growth factors receptor (Homo sapiens) | literature, multiple sources.
Note: values are log10 of IC50 expressed in nM.

Recorded log10 IC50, per entry:
* O=C(NCCCOc1ccc2c(C3CCN(C(=O)Nc4ccc(N5CCOCC5)nc4)CC3)ncnc2c1)N1CCOCC1 | 4.06
* CO/N=C/c1c(N)ncnc1N1CCC(NC(=O)Nc2ccc(N3CCCCC3)cc2)CC1 | 3.46
* CN1CCN(CCCOc2ccc3c(C4CCN(C(=O)Nc5ccc(N6CCCC6)nc5)CC4)ncnc3c2)CC1 | 2.90
* CCCOc1ccc(F)cc1C(C)Nc1ccn2ncc(-c3cn[nH]c3)c2n1 (centres unmarked) | 0.74
* COc1cc2ncnc(C3CCN(C(=O)Nc4ccc(OC(F)F)cc4)CC3)c2cc1OC | 3.60

We now examine a further molecule.
Tested on BDNF/NT-3 growth factors receptor (Homo sapiens), the item CCN(CC)CCCOc1ccc2c(C3CCN(C(=O)Nc4ccc(OC(C)C)cc4)CC3)ncnc2c1 showed log10 IC50 equal to 2.78

###

Here's a roundup of pIC50 values tested on BDNF/NT-3 growth factors receptor (Homo sapiens, UniProt Q16620), taken from various published works.
Numbers only, as −log10 of the molar value.

Here are 10 molecules together with their reported answers.
• CC(Oc1cc(-c2ccc(C(N)=O)c(N3CCN(c4cccnc4)CC3)c2)cc2[nH]nc(N)c12)C(F)(F)F (centres unmarked) = 8.70
• O=C(Nc1ccc(N2CCCC2)cc1)N1CCC(c2ncnc3cc(OCCCN4CCC[C@H]4CO)ccc23)CC1 = 5.19
• Fc1cc(F)cc(Cc2ccc3[nH]nc(/C=C/c4cccnc4)c3c2)c1 = 7.96
• O=C1NN(C2CC2)CCc2ncc(F)cc2[C@H]2CCCN2c2ccn3ncc1c3n2 = 9.24
• C[C@@H](Nc1ccn2ncc(-c3cnn(C4CCCCO4)c3)c2n1)c1cc(F)ccc1OCC(F)F (some centres unmarked) = 8.57
• Fc1ccccc1Cc1ccc2[nH]nc(C#Cc3ccccn3)c2c1 = 6.44
• CC1Cc2ncc(F)cc2[C@H]2CCCN2c2ccn3ncc(c3n2)C(=O)NN1C1CC1 (single isomer, unassigned) = 8.95
• NC(=O)c1ccc(-c2cc(OC3CCCC3)c3c(N)n[nH]c3c2)cc1N1CCN(c2ccc(F)cc2)CC1 = 8.31
• C[C@H]1Nc2ccn3ncc(c3n2)C(=O)OCCSc2ccc(F)cc21 = 8.80
• CC(C)c1ccc(NC(=O)OC2CCN(c3ncnc4ccc(C#CCO)cc34)C2)cc1 (centres unmarked) = 6.40

Could you tell me pIC50 for each of these molecules? They are listed below.
1. Fc1cc(F)cc(CCc2ccc3[nH]nc(/C=C/c4ccccn4)c3c2)c1
2. CCO/N=C/c1c(N)ncnc1N1CCN(C(=O)Nc2ccc(OC(C)C)cc2)CC1
3. Fc1cc(F)cc(Cc2ccc3[nH]nc(/C=C/c4ccncc4)c3c2)c1
4. Fc1cccc(Cc2ccc3[nH]nc(/C=C/c4ccccn4)c3c2)c1

output:
8.00
6.22
7.65
7.49

###

Collected from the literature: IC50 of various compounds toward BDNF/NT-3 growth factors receptor (Homo sapiens).
Mark each entry YES if its IC50 sits below 4 µM, and NO for all others.

Use the examples below as a reference point.
- CC(=O)N1CCN(c2cc(-c3cc(OC4CCCC4)c4c(N)n[nH]c4c3)ccc2C(N)=O)CC1: YES
- CNC(=O)c1ccc(-c2cc(OC(C)C(F)(F)F)c3c(N)n[nH]c3c2)cc1N1CCN(C2CC2)CC1 (stereo not shown): YES
- CNC(=O)C1CCN(c2ccc3c(C4CCN(C(=O)Nc5ccc(N6CCCC6)cc5)CC4)ncnc3c2)CC1: NO
- CNC(=O)c1ccc(-c2cc(OC(C)C(F)(F)F)c3c(N)n[nH]c3c2)cc1N1CCN(C2CCCCC2)CC1 (stereo not shown): YES

input: Given the entry Fc1cc(F)cc(Oc2ccc3[nH]nc(C#Cc4ccccn4)c3c2)c1 , would its reported IC50 be below 4 µM?
output: YES

input: # check: IC50 < 4 µM for COc1cc2ncc(C#N)c(N3CCC(NC(=O)Nc4ccc(C(C)C)cc4)C3)c2cc1OC (stereo not shown)
output: NO

###

Compiled record: pIC50 values for BDNF/NT-3 growth factors receptor (Homo sapiens, UniProt Q16620) across several sources.
Numbers only, as −log10 of the molar value.

Recorded pIC50, per entry:
- COc1cc2ncnc(N3CCC(NC(=O)Nc4ccc(N5CCOCC5)cc4)C3)c2cc1OC (centres unmarked): 4.39
- COc1cc2ncnc(N3CCC(C(=O)Nc4ccc(OC(C)C)cc4)CC3)c2cc1OC: 6.26
- CC(C)Oc1ccc(NC(=O)N2CCN(c3ncnc(N)c3/C=N/OCCCO)CC2)cc1: 5.89

Batch: pIC50 for all items listed.
1. O=C1CCCN1CCCOc1ccc2c(C3CCN(C(=O)Nc4cnc(N5CCCC5)nc4)CC3)ncnc2c1
2. Fc1cc(F)cc(Cc2ccc3[nH]nc(/C=C/c4ccccn4)c3c2)c1

output:
[6.52, 7.84]

###

We begin with pIC50 values for BDNF/NT-3 growth factors receptor (Homo sapiens, UniProt Q16620), as collected from the published literature.
pIC50: −log10 of the molar value.

Known pIC50 results, listed for orientation:
* CN1CCN(CCCOc2ccc3c(C4CCN(C(=O)Nc5ccc(N6CCOCC6)c(F)c5)CC4)ncnc3c2)CC1 | < 4.70
* O=C(Nc1ccc(N2CCOCC2)cc1)N1CCC(c2ncnc3cc(OCCCN4CCOCC4)ccc23)CC1 | < 4.38
* CC(=O)N1CCN(CCOc2ccc3c(C4CCN(C(=O)Nc5ccc(N6CCOCC6)cc5)CC4)ncnc3c2)CC1 | < 4.70
* CC(C)NC(=O)[C@H]1CC[C@@H](n2/c(=N/C(=O)c3cc(F)cc(F)c3)[nH]c3ccc(CN4CCC(C(C)(C)O)CC4)cc32)CC1 | 7.00 to 9.00
* Cc1c(C#Cc2cnc3ccc(N4CCC(C)(O)CC4)nn23)cccc1C(=O)Nc1cc(Cl)cc(C(F)(F)F)c1 | 7.00 to 8.00
* CCOC(=O)c1c[nH]c2c(=O)[nH]c3ccc(S(=O)(=O)Nc4cccc(OC)c4)cc3c12 | 4.00 to 5.00
* Cc1c(C#Cc2cnc3ccc(N4CCN(C)CC4)nn23)cccc1C(=O)Nc1cc(Cl)cc(C(F)(F)F)c1 | 7.00 to 8.00
* COCCOc1ccc(NC(=O)N2CCC(c3ncnc4cc(OC)c(OC)cc34)CC2)cc1 | < 4.38
* Cc1c(C#Cc2cnc3ccc(N4CCC(N)CC4)nn23)cccc1C(=O)Nc1cc(Cl)cc(C(F)(F)F)c1 | 7.00 to 8.00

Kindly review the next compound as well.
// sample NC(=O)c1c(N)nn2ccc(N3CCC[C@@H]3c3cc(F)ccc3F)nc12 , its pIC50 was > 8.00
